- study target: AChE isolated from electric eel (EeAChE) (Electrophorus electricus, UniProt O42275)
- Sequence (O42275 24-633): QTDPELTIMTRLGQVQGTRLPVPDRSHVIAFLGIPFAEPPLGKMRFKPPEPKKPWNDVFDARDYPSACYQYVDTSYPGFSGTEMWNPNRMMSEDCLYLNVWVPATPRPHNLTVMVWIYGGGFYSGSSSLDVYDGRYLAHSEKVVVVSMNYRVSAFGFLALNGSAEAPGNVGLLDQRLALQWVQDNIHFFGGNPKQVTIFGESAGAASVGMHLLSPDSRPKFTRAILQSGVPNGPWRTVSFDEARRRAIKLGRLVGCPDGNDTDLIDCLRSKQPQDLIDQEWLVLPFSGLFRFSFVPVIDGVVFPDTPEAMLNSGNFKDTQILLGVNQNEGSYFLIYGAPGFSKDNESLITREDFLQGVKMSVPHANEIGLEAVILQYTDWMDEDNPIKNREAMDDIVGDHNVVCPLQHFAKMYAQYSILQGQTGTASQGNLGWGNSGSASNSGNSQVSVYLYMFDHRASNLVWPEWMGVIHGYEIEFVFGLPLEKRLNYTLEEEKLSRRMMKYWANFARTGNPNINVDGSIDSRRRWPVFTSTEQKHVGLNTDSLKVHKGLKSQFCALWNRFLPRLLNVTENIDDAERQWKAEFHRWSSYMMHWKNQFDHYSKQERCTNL
- experiment description: biochemical
- condition notes: mean ± SD, n = three independent experiments; ATCh 40 µM
pIC50: −log10 of the molar value.

{"molecule": "Cc1ccc(/C=N/NC(=O)c2ccc(C(F)(F)F)cc2)cc1", "study target": "AChE isolated from electric eel (EeAChE) (Electrophorus electricus, UniProt O42275)", "pIC50": 4.04}
{"molecule": "CC(C)=NNC(=O)c1ccc(C(F)(F)F)cc1", "study target": "AChE isolated from electric eel (EeAChE) (Electrophorus electricus, UniProt O42275)", "pIC50": 4.16}
{"molecule": "O=C(NN=C1CCCCC1)c1ccc(C(F)(F)F)cc1", "study target": "AChE isolated from electric eel (EeAChE) (Electrophorus electricus, UniProt O42275)", "pIC50": 4.21}
{"molecule": "O=C(N/N=C/c1ccc(Br)cc1)c1ccc(C(F)(F)F)cc1", "study target": "AChE isolated from electric eel (EeAChE) (Electrophorus electricus, UniProt O42275)", "pIC50": 4.21}
{"molecule": "O=C(N/N=C/c1ccccc1Cl)c1ccc(C(F)(F)F)cc1", "study target": "AChE isolated from electric eel (EeAChE) (Electrophorus electricus, UniProt O42275)", "pIC50": 3.89}
{"molecule": "O=C(NN=Cc1ccc(C(F)(F)F)cc1)c1ccc(C(F)(F)F)cc1", "study target": "AChE isolated from electric eel (EeAChE) (Electrophorus electricus, UniProt O42275)", "pIC50": 4.33}
{"molecule": "O=C(N/N=C/c1ccc(Cl)cc1)c1ccc(C(F)(F)F)cc1", "study target": "AChE isolated from electric eel (EeAChE) (Electrophorus electricus, UniProt O42275)", "pIC50": 4.05}
{"molecule": "O=C(N/N=C/c1ccc(O)cc1)c1ccc(C(F)(F)F)cc1", "study target": "AChE isolated from electric eel (EeAChE) (Electrophorus electricus, UniProt O42275)", "pIC50": 3.99}
{"molecule": "O=C(NN=Cc1ccccc1[N+](=O)[O-])c1ccc(C(F)(F)F)cc1", "study target": "AChE isolated from electric eel (EeAChE) (Electrophorus electricus, UniProt O42275)", "pIC50": 4.22}
{"molecule": "O=C(NN=Cc1cccc(Br)c1)c1ccc(C(F)(F)F)cc1", "study target": "AChE isolated from electric eel (EeAChE) (Electrophorus electricus, UniProt O42275)", "pIC50": 4.01}
{"molecule": "O=C(N/N=C/c1cccc(O)c1)c1ccc(C(F)(F)F)cc1", "study target": "AChE isolated from electric eel (EeAChE) (Electrophorus electricus, UniProt O42275)", "pIC50": 4.15}
{"molecule": "COc1ccc(/C=N/NC(=O)c2ccc(C(F)(F)F)cc2)cc1", "study target": "AChE isolated from electric eel (EeAChE) (Electrophorus electricus, UniProt O42275)", "pIC50": 3.96}
{"molecule": "O=C(N/N=C/c1ccccc1O)c1ccc(C(F)(F)F)cc1", "study target": "AChE isolated from electric eel (EeAChE) (Electrophorus electricus, UniProt O42275)", "pIC50": 4.32}
{"molecule": "O=C(N/N=C/c1cc(Cl)ccc1O)c1ccc(C(F)(F)F)cc1", "study target": "AChE isolated from electric eel (EeAChE) (Electrophorus electricus, UniProt O42275)", "pIC50": 3.86}
{"molecule": "O=C(NN=Cc1ccccc1C(F)(F)F)c1ccc(C(F)(F)F)cc1", "study target": "AChE isolated from electric eel (EeAChE) (Electrophorus electricus, UniProt O42275)", "pIC50": 4.30}
{"molecule": "O=C(NN=Cc1ccc(C(F)(F)F)cc1)c1ccccc1", "study target": "AChE isolated from electric eel (EeAChE) (Electrophorus electricus, UniProt O42275)", "pIC50": 4.20}
{"molecule": "O=C(NN=Cc1cccc([N+](=O)[O-])c1)c1ccc(C(F)(F)F)cc1", "study target": "AChE isolated from electric eel (EeAChE) (Electrophorus electricus, UniProt O42275)", "pIC50": 4.09}
{"molecule": "CC12CCC(CC1=NNC(=O)c1ccc(C(F)(F)F)cc1)C2(C)C (stereo not shown)", "study target": "AChE isolated from electric eel (EeAChE) (Electrophorus electricus, UniProt O42275)", "pIC50": 4.23}
{"molecule": "O=C(N/N=C/c1ccccc1)c1ccc(C(F)(F)F)cc1", "study target": "AChE isolated from electric eel (EeAChE) (Electrophorus electricus, UniProt O42275)", "pIC50": 4.12}
{"molecule": "O=C(NN=Cc1ccccc1Br)c1ccc(C(F)(F)F)cc1", "study target": "AChE isolated from electric eel (EeAChE) (Electrophorus electricus, UniProt O42275)", "pIC50": 4.20}
{"molecule": "Cc1ccc(C(=O)NN=Cc2ccc(C(F)(F)F)cc2)cc1", "study target": "AChE isolated from electric eel (EeAChE) (Electrophorus electricus, UniProt O42275)", "pIC50": 4.12}
{"molecule": "O=C(NN=Cc1cccc(C(F)(F)F)c1)c1ccc(C(F)(F)F)cc1", "study target": "AChE isolated from electric eel (EeAChE) (Electrophorus electricus, UniProt O42275)", "pIC50": 4.30}

* * *

Catalogue of Selectivity BuChE/AChE readings, one per entry.
- study target: AChE isolated from electric eel (EeAChE) (Electrophorus electricus, UniProt O42275)
- experiment description: biochemical
- condition notes: SI = ratio of IC50 for BuChE/IC50 for AChE; >1 means stronger inhibition of AChE
quantity name: Selectivity BuChE/AChE

{"smiles record": "O=C(NN=Cc1ccc(C(F)(F)F)cc1)c1ccccc1", "meas value": 3.0}
{"smiles record": "O=C(NN=Cc1cccc(C(F)(F)F)c1)c1ccc(C(F)(F)F)cc1", "meas value": 1.3}
{"smiles record": "O=C(N/N=C/c1cccc(Cl)c1)c1ccc(C(F)(F)F)cc1", "meas value": 3.4}
{"smiles record": "CC(C)=NNC(=O)c1ccc(C(F)(F)F)cc1", "meas value": 6.1}
{"smiles record": "O=C(NN=Cc1ccc(C(F)(F)F)cc1)c1ccc(C(F)(F)F)cc1", "meas value": 3.7}
{"smiles record": "O=C(N/N=C/c1ccccc1Cl)c1ccc(C(F)(F)F)cc1", "meas value": 0.5}
{"smiles record": "O=C(NN=Cc1cccc(Br)c1)c1ccc(C(F)(F)F)cc1", "meas value": 1.7}
{"smiles record": "COc1ccc(/C=N/NC(=O)c2ccc(C(F)(F)F)cc2)cc1", "meas value": 2.6}
